Source: patent US20240101645A1

Biological target: SARS-CoV-2 S on pseudovirions (Wuhan Hu-1 / IL1/2020, last 18 amino acids removed) (SARS-CoV-2, UniProt P0DTC2 14-1273)
Assay: cell-based or functional assay
quantity-kind: Mean IC80, pSV neutralization

>>> result_value("COV_1063 (antibody, V domains shown, human IgG1) VH: EEKLVESGGDLVQPGGSLRISCEVSGFSLSKYWMNWVRQAPGKGLQWVANIEEDGSERNYADSVKGRFTISRDNARNSLYLQMNSLRVEDTAVYLCTAGHYAGPWGWGQGTLVTVSS VL: DIQMTQSPSSLSASVGDRVTVTCRASQDIGHYLAWYQQKPGKTPNLLIYDAFNLESGVPPRFGGSGSGTDFTLTISSLQPEDAATYYCQKYDSVPWTFGQGTKVEIKR")
"≥ 25 µg/ml"
>>> result_value("COV_1170 (antibody, V domains shown, human IgG1) VH: QVQLVESGGGVVQPGRSLRLSCAASGFTFSTYAMHWVRQAPGKGLEWVALISYDGSNKYYADSVKGRFTISRDNSKNTLDLQMNSLRAEDTAVYYCARSLGGYRTGFDYWGQGTLVTVSS VL: DIQLTQSPSFLSASVGDRVTITCRASQGISSYLAWYQQKPGKAPKLLIYAASTLQSGVPSRFSGSGSGTEFTLTISSLQPEDFATYYCQQLNSYPPFTFGPGTKVDIKR")
"≥ 25 µg/ml"
